Target: polyamine binding site of the NR2B subunit of the NMDA receptor (Homo sapiens, UniProt Q05586+Q13224)
Construct: expressed in transfected cells; host or cells: mouse L(tk-) cells, dexamethasone-induced; gift from D. Steinhilber, University of Frankfurt
Sequence (Q13224 27-1484, other chains not shown): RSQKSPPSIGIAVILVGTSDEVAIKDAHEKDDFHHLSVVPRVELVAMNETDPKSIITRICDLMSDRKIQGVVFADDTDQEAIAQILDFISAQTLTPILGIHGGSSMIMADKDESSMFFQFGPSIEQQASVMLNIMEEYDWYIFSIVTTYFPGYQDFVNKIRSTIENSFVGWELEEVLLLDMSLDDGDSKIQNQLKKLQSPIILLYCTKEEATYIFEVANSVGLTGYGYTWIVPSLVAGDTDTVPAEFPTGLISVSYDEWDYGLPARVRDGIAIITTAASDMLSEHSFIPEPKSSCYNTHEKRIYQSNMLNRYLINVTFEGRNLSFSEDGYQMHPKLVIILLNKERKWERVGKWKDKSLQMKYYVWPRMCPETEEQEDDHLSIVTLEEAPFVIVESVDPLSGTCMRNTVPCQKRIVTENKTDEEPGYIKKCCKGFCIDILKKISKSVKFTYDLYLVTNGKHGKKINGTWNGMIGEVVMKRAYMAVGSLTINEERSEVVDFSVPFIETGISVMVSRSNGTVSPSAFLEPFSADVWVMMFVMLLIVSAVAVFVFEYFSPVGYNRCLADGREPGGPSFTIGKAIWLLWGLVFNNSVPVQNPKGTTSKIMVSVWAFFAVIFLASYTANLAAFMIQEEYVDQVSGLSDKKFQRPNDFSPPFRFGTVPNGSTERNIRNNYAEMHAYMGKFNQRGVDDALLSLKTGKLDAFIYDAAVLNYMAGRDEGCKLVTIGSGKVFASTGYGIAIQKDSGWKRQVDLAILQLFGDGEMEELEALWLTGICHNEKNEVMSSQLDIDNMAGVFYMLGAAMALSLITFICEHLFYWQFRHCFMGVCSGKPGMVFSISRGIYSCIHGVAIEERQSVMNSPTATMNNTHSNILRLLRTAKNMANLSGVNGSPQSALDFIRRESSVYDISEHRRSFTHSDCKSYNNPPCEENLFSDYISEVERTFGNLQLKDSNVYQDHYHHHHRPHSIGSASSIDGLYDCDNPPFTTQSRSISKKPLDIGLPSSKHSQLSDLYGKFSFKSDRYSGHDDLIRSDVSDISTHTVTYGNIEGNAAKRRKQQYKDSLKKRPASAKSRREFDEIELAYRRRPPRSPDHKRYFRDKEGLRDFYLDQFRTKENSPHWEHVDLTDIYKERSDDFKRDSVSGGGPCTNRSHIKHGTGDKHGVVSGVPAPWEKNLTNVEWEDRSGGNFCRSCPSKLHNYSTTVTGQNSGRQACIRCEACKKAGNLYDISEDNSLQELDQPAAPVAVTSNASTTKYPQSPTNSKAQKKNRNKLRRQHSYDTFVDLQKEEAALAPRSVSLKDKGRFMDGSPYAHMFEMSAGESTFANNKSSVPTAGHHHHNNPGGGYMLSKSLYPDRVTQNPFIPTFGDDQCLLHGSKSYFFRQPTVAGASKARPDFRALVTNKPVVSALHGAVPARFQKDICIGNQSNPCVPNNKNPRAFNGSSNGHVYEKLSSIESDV
Test: Filtration-based receptor binding assay with [3H]-Ifenprodil as radioligand
Details: 5 nM [3H]-Ifenprodil; membrane homogenates of mouse L(tk-) cells transfected with NR1-1a/NR2B; 180 min at 37 °C; Ki mean of three experiments ± S.E.M.; read-out: affinity to the NR2B binding site of the NMDA receptor
pKi: −log10 of the molar value.
Reported pKi values follow for various molecules
quantity name: pKi

COc1ccc2c(c1)CCN(CCCC(=O)c1ccc(C(C)(C)C)cc1)CC2O (stereo not drawn) [formula (14)]    7.22
COc1ccc2c(c1)CCN(C1CCC(c3ccccc3)CC1)CC2O (stereo not drawn) [formula (3)]    6.72
OC1CN(CCCCc2ccccc2)CCc2cc(OCc3ccccc3)ccc21 (stereo not drawn) [formula (9)]    6.60
COc1ccc2c(c1)CCN(CCCCc1ccccc1)CC2O (stereo not drawn) [formula (1)]    8.29
CC(C)(C)c1ccc(C(=O)CCCN2CCc3cc(OCc4ccccc4)ccc3C(O)C2)cc1 (stereo not drawn) [formula (13)]    7.00
Oc1ccc2c(c1)CCN(CCCCc1ccccc1)CC2O (stereo not drawn) [formula (4)]    7.82
OC1CN([C@H]2CC[C@@H](c3ccccc3)CC2)CCc2cc(OCc3ccccc3)ccc21 (relative stereo) [formula (19)]    6.81
Oc1ccc2c(c1)CCN([C@H]1CC[C@H](c3ccccc3)CC1)CC2O (relative stereo) [formula (23)]    7.47
CCCCCCCCN1CCc2cc(OC)ccc2C(O)C1 (stereo not drawn) [formula (2)]    6.23
OC1CN(C2CCC3(CC2)OCCO3)CCc2cc(OCc3ccccc3)ccc21 (stereo not drawn) [formula (25)]    8.95
C[C@H]1[C@H](O)c2ccc(O)cc2CCN1CCCCc1ccccc1 [formula (29)]    6.77
COc1ccc2c(c1)CCN(CCCCc1ccccc1)[C@H](C)[C@@H]2O [formula (18)]    6.23

Source: patent EP2246331A1
